EC50 for assorted compounds
- EXPERIMENTAL TARGET: Mu-type opioid receptor (Homo sapiens, UniProt P35372)
- Sequence (P35372 whole entry): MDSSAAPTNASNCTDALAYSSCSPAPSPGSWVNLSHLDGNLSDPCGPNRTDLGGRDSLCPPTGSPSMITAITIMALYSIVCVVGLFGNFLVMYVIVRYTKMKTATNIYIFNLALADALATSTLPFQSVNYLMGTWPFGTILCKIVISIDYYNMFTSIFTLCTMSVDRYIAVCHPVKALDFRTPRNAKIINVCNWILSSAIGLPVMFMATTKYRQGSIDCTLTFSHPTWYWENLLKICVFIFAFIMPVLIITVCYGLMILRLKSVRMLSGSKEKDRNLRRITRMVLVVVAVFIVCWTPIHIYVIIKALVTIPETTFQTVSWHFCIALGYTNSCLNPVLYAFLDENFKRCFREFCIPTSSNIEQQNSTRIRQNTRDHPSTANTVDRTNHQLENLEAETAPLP
- ASSAY TEXT: Mu Opioid Receptor Binding Assay and Antagonist Functionality Assay
- STUDY CONDITIONS: pH 7.4; 22 °C
- Description: In the binding assays, the results were expressed as percent inhibition of the control radioligand specific binding. The IC50 values (concentration causing a half maximal inhibition of control specific binding) were determined by non-linear regression analysis of the competition curves using Hill equation curve fitting. The inhibition constants (Ki) were calculated from the Cheng Prusoff equation. […]

# MOLECULE, EC50
records = [
    ("CC(C)N[C@H]1CCn2c(=O)[nH]c3cccc(c32)[C@@H]1O", "140 µM"),
    ("CC(C)N[C@@H]1CCn2c(=O)[nH]c3cccc(c32)[C@H]1O", "> 1000 µM"),
]

Data origin, for the record: BindingDB's records for doi:10.1021/jm801211c
